All values here come from the array DNA melting data of Ke et al. (doi:10.1101/2024.01.08.574731).

What folding enthalpy was measured for each of the following?
# procedure summary: folding enthalpy; higher = less favourable; fluorescence melt of hairpins on a sequencing array, two-state fit
# experimental conditions: sodium 0.088 M
Numbers only, in kcal/mol.

Past entries and their recorded results:
>  <residue codes>
GTGTATGGAAACACACAC ((((.((....)).))))

>  <folding enthalpy (kcal/mol)>
-26.1

$$$$
>  <residue codes>
GATCTACTCGTAGATC ((((((....))))))

>  <folding enthalpy (kcal/mol)>
-50.1

$$$$
>  <residue codes>
GCAAACGAAAGTTGTGC ((((((....))).)))

>  <folding enthalpy (kcal/mol)>
-22.6

$$$$
>  <residue codes>
GCCATGCGAAAGCACTGC ((..(((....)))..))

>  <folding enthalpy (kcal/mol)>
-10.4

$$$$
>  <residue codes>
GTTGTGGGAAACCATAGC (.(.(((....))).).)

>  <folding enthalpy (kcal/mol)>
-12.7

$$$$
>  <residue codes>
GATCCATTAGTGGATC ((((((....))))))

>  <folding enthalpy (kcal/mol)>
-36.8

$$$$
>  <residue codes>
GATCCAGCGGTGGATC ((((((....))))))

>  <folding enthalpy (kcal/mol)>
-44.3

$$$$
>  <residue codes>
GTCTAATCGAAAGATGAC (((..(((....))))))

>  <folding enthalpy (kcal/mol)>
-14.8

$$$$

Hi! Can you tell me folding enthalpy for each of these sequences?
1. GATCCCCAATGGGATC ((((((....))))))
2. GACTTACCGAAAGGTGTC (((..(((....))))))

**A:**
[-34.5, -16.4]
